The origin of these recorded values is a melting point compilation (Tetko et al.; mined from patent text by program, amines drawn as free bases though some values may be those of a salt).

Measured melting point values are reported for all entries that follow.

Below are worked cases with known answers.
1. CCCOC(=NC#N)c1ccc(N)nc1 : 150 °C
2. O=C(Nc1ccc(-n2nc(C(F)(F)F)cc2Cl)cc1)c1ccncc1F : 128 to 129 °C
3. O=C(CCc1ccccc1)c1ccc2n1Cc1ccccc1N(C(=O)COc1ccc(Cl)cc1)C2 : 126 to 128 °C

Next:
Exercise: Could you share which melting point value was measured for Cc1ccc2[nH]ncc2c1OCc1ccccc1 ?
Key: 94 to 95 °C

* * *

Quantity: melting point

Below are worked cases with known answers.
1) COCc1nccc(SCCCSc2ccc3ncc([N+](=O)[O-])n3n2)c1C : 107 to 110 °C
2) CN1C(=O)Cc2cc(Br)cnc21 : 149 °C
3) COc1ccc2ncc([N+](=O)[O-])c(Cl)c2c1 : 281 to 283 °C
4) CNC(=O)C(=NOC)c1ccccc1COc1ccc(Sc2ccccc2)cn1 : 95 to 96 °C
5) Cc1c(C(N)=O)c2ccccc2n2c(N3CCCC3)nc(-c3noc(C4CC4)n3)c12 : 206 to 209 °C

Next:
Exercise: Could you share which melting point value was measured for COc1cc2c3ccc(OC)c(OC)c3n(C(=O)c3ccc(-c4ccccc4)cc3)c2cc1OC ?
Key: 150 to 153 °C
